Test system: HT-29
Test: NCI tumour cell line growth inhibition, 48 h
Calls of active or inactive are those of the source. No stated cut-off is given here; in the data, active = GI50 up to about 1.1 µM and inactive = higher.
Mark one answer only. Choices: active, inactive

• CO[C@H]1[C@@H](O)[C@@H](C)O[C@@H](O[C@H]2CC[C@@]3(C)[C@H](CC[C@@H]4[C@@H]3CC[C@]3(C)[C@@H](C5=CC(=O)OC5)CC[C@]43O)C2)[C@@H]1O [ODOROSIDE H] = active
• c1ccc(CN2CCCCC(Sc3ccccc3)CC2)cc1 (stereo not drawn) = inactive
• CCCCCCCCCCCCCCCC(=O)Nc1ccn(C2OC(CO)C(O)C2O)c(=O)n1 (stereo not drawn) = inactive
• C/C=C1/CN2CCC34c5ccccc5N(C)C23C2CC1C4(C(=O)OC)C(OC(C)=O)O2 (stereo not drawn) = inactive
• CC1C(c2ccccc2)N(C)C(c2ccccc2)C(C)C1(O)c1ccccc1 (stereo not drawn) = inactive
• Cc1ccc(S(=O)(=O)Nn2c(S)c(C#N)c(-c3ccc([N+](=O)[O-])cc3)c(C#N)c2=O)cc1 = inactive
• CC(C)(C)OC(=O)NCCC1SC2C=CC1C2 (stereo not drawn) = inactive

As a next step, examine the compound that follows.
Outcome logged for COc1ccc(COCC[C@H](C)OC2OC(CO[Si](C)(C)C(C)(C)C)C(OC(=O)CCCN=[N+]=[N-])C(OC(=O)CCCN=[N+]=[N-])C2OC(=O)CCCN=[N+]=[N-])cc1 (stereo partly drawn) in this assay: inactive
